- targetDesc: UniProtKB P26684
- Sequence (P26684 whole entry): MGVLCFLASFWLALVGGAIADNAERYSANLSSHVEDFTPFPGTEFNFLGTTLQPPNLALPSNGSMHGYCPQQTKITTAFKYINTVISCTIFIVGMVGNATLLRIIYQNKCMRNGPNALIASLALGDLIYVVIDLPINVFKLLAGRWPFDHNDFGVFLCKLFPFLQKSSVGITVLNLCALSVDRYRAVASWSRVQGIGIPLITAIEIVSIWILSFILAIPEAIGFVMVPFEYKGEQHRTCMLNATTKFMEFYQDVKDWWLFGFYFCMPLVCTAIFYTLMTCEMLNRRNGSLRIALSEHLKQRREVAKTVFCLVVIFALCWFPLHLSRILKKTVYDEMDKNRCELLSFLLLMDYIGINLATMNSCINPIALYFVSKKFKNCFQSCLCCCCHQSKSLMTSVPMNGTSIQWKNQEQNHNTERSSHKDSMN
- assayExplanation: In vitro inhibition of endothelin binding to Endothelin A receptor in rat heart ventricles was measured using 125-I labelled ET-1 competition assay; No measurable affinity

- molSmiles: "COc1cccc(Cn2[nH]c(C(F)(F)F)c(Cc3ccc(OC)c(OC)c3)c2=O)c1"
  IC50: "Not Active"
- molSmiles: "COc1cccc(Cn2nc(C(F)(F)F)c(Cc3ccc4c(c3)OCO4)c2OC)c1"
  IC50: "Not Active"
- molSmiles: "CCOC(=O)COc1c(Cc2ccc3c(c2)OCO3)c(C(F)(F)F)nn1Cc1cccc(OC)c1"
  IC50: "Not Active"
- molSmiles: "COc1cccc(Cn2[nH]c(C(F)(F)F)c(Cc3cc(OC)c(OC)c(OC)c3)c2=O)c1"
  IC50: "Not Active"
